- Target System: SARS-CoV-2 "Epsilon" B.1.427/9 full-length Spike protein on pseudovirus (SARS-CoV-2, UniProt P0DTC2 14-1273)
- Protocol Text: cell-based or functional assay

{"columns": ["Binder", "Pseudovirus Neturalization [µg/mL]"],
 "data": [
  ["AB-009346 (antibody, V domains shown) VH: EVQLVESGGGVVRPGGSLRLSCAASGFTFDDYGMSWVRQAPGKGLEWVSGINWNGGSTGYADSVKGRFTISRDNAKNSLYLQMNSLRAEDTALYYCARWPLLGISGYYHYYMDVWGKGTTVTVSS VL: QSALTQPRSVSGSPGQSVTISCTGTSSDVGGYNYVSWYQQHPGKAPKLMIYDVSKRPSGVPDRFSGSKSGNTASLTISGLQAEDEADYYCCSYAGSYTLLFGGGTKLIVL", 33.6],
  ["AB-009271 (antibody, V domains shown) VH: EVQLVESGGGLIQPGGSLRLSCAASGFIVSSNYMSWVRQAPGKGLEWVSVIYSGGSTYYADSVKGRFTISRDNSKNTLYLQMNSLRAEDTAVYYCARDYGDFYFDYWGQGTLVTVSS VL: EIVMTQSPATLSVSPGERATLSCRASQSVSSNLAWYQQKPGQAPRLLIYGASTRATGIPARFSGSGSGTEFTLTISSLQSEDFAVYYCQQYYNWPRTFGQGTKVEIK", 0.028]
]}
